target.or.system: PI3Kalpha (Homo sapiens (Human))
assay.overview: Inhibition of PI3Kalpha-induced PIP-2 phosphorylation (filter-binding assay)
Type: biochemical
applied.conditions: 33P-ATP, p85alpha/His-p110alpha, read-out: IC50 PI3Kα
pIC50: −log10 of the molar value.
result.type: pIC50

Known pIC50 results, listed for orientation:
{"columns": ["compound", "pIC50"],
 "data": [
  ["Cc1ncc(C#Cc2c(C)ncnc2NC(C)C)cc1NS(=O)(=O)c1ccccc1 [Example I-59]", 8.22],
  ["Cc1ncc(C#Cc2c(C)ncnc2N2CCOCC2)cc1NS(=O)(=O)c1ccc(F)cc1 [Example I-30]", 9.37],
  ["Cc1ncnc(N2CCOCC2)c1C#Cc1cncc(NS(=O)(=O)c2cccnc2)c1 [Example I-22]", 9.10],
  ["Cc1ncnc(N2CCOCC2)c1C#Cc1cncc(NS(=O)(=O)c2cccs2)c1 [Example I-21]", 9.28],
  ["Cc1ncc(C#Cc2c(C)ncnc2N2CCOCC2)cc1NS(=O)(=O)c1cn(C)c(C)n1 [Example I-55]", 9.00]
]}

P: CCc1nc(N)nc(N2CCC(OC)CC2)c1C#Cc1cnc(C)c(NS(C)(=O)=O)c1 [Example I-34]
Q: COc1ncc(C#Cc2c(C)ncnc2N2CCOCC2)cc1NS(=O)(=O)c1cccs1 [Example I-86]
Between the two listed entries P and Q , which has its pIC50 at the higher number? Please indicate the selected item by its label.
Q
(Q: 9.41, P: 8.70)

###

Tested on: MB453 cells
assay.overview: alamarBlue MB453 cell assay (antiproliferative/cytotoxicity)
Type: cell-based
applied.conditions: Homo sapiens; MDA MB 453 breast cancer cell line
result.type: EC50 (nM)
// units = nM; emit number, no label

Known EC50 results, listed for orientation:
{"columns": ["compound", "unit.name", "EC50"],
 "data": [
  ["CCc1ncnc(N2CCOCC2)c1C#Cc1cnc(OC)c(NS(=O)(=O)c2ccccc2)c1 [Example I-26]", "nM", 61],
  ["CCc1ncnc(N2CCN(C)CC2)c1C#Cc1cnc(C)c(NS(=O)(=O)c2ccc(F)cc2)c1 [Example I-65]", "nM", 230],
  ["Cc1ncc(C#Cc2c(C)ncnc2N2CCOCC2)cc1NS(=O)(=O)c1cn(C)cn1 [Example I-9]", "nM", 1070],
  ["Cc1ncc(C#Cc2c(C)ncnc2N(C)C2CCOCC2)cc1NS(=O)(=O)c1ccc(F)cc1F [Example I-16]", "nM", 397],
  ["COC1CCN(c2ncnc(C)c2C#Cc2cnc(C)c(NS(=O)(=O)c3ccccc3)c2)CC1 [Example I-74]", "nM", 987]
]}

// compound Cc1ncc(C#Cc2c(C)ncnc2N2CCOCC2)cc1NS(=O)(=O)c1ccnn1C [Example I-56] , assay MB453 cells, EC50 value: 239

// compound Cc1ncc(C#Cc2c(C)ncnc2N2CCOCC2)cc1NS(=O)(=O)c1ccccc1Br [Example I-8] , assay MB453 cells, EC50 value: 143

// compound Cc1ncc(C#Cc2c(C)ncnc2N2CCOCC2)cc1NS(=O)(=O)c1cccc(F)c1 [Example I-6] , assay MB453 cells, EC50 value: 259

// compound Cc1ncc(C#Cc2c(C)ncnc2N2CCOCC2)cc1NS(=O)(=O)c1cccs1 [Example I-10] , assay MB453 cells, EC50 value: 113

// compound CC(=O)N1CCCN(c2ncnc(C)c2C#Cc2cnc(C)c(NS(=O)(=O)c3ccccc3)c2)CC1 [Example I-62] , assay MB453 cells, EC50 value: 969

// compound COc1ncc(C#Cc2c(C)ncnc2N2CCOCC2)cc1NS(=O)(=O)c1ccc(C)o1 [Example I-89] , assay MB453 cells, EC50 value: 38

// compound Cc1ncc(C#Cc2c(C)ncnc2N2CCN(C)C(=O)C2)cc1NS(=O)(=O)c1ccccc1 [Example I-60] , assay MB453 cells, EC50 value: 618

// compound CCc1ncnc(N2CCN(C(C)=O)CC2)c1C#Cc1cnc(C)c(NS(=O)(=O)c2ccc(F)cc2)c1 [Example I-68] , assay MB453 cells, EC50 value: 116

// compound Cc1ncc(C#Cc2c(C)ncnc2N2CCOCC2)cc1NS(=O)(=O)c1cnn(C)c1 [Example I-51] , assay MB453 cells, EC50 value: 199

// compound Cc1ncc(C#Cc2c(C)ncnc2N2CCN(C3CC3)CC2)cc1NS(=O)(=O)c1ccccc1 [Example I-58] , assay MB453 cells, EC50 value: 4640

// compound Cc1ncc(C#Cc2c(C)ncnc2N2CCOCC2)cc1NS(=O)(=O)c1ccccc1 [Example I-40] , assay MB453 cells, EC50 value: 145

###

target.or.system: PI3Kalpha (Homo sapiens (Human), UniProt P42336)
Sequence (P42336 whole entry): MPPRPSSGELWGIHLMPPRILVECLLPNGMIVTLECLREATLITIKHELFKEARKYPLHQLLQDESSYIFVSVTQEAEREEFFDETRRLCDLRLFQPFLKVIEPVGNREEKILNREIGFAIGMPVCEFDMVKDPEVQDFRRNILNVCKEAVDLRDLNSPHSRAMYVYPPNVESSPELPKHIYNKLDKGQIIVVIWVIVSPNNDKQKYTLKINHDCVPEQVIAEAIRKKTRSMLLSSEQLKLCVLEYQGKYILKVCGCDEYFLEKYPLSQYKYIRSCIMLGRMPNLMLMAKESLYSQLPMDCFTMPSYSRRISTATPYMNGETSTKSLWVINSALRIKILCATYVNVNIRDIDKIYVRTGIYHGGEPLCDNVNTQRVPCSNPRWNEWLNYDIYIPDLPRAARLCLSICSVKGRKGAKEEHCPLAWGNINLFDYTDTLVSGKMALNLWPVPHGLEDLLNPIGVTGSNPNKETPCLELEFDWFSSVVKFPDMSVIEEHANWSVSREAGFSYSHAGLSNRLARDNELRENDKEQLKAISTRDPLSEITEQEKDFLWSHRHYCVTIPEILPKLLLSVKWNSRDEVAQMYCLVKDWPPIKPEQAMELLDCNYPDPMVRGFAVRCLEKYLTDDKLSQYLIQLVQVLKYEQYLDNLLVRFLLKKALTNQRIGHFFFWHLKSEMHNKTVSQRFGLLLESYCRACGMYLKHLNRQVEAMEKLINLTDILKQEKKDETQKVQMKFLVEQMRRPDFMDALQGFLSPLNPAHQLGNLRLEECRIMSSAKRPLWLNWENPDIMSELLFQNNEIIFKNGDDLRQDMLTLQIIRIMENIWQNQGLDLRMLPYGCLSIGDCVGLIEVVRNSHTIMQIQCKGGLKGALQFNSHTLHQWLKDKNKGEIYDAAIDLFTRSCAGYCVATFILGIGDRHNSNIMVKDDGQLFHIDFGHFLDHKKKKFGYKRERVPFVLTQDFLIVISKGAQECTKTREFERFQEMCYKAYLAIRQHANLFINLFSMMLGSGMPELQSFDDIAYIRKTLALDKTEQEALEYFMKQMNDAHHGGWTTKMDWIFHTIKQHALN
assay.overview: Inhibition of PI3Kalpha-induced PIP-2 phosphorylation (filter-binding assay)
applied.conditions: 33P-ATP, p85alpha/His-p110alpha, read-out: IC50 PI3Kα
pIC50: −log10 of the molar value.
result.type: pIC50

{"columns": ["compound", "reported.measurement"],
 "data": [
  ["Cc1ncc(C#Cc2c(C)ncnc2N2CCOCC2)cc1NS(=O)(=O)c1c(F)cccc1F [Example I-7]", 9.10],
  ["Cc1ncc(C#Cc2c(C)ncnc2N2CCCOCC2)cc1NS(=O)(=O)c1ccccc1 [Example I-73]", 8.70],
  ["COc1ncc(C#Cc2c(C)ncnc2N2CCOCC2)cc1NS(=O)(=O)c1ccccc1C(F)(F)F [Example I-83]", 9.36],
  ["Cc1ncc(C#Cc2c(C)ncnc2N2CCOCC2)cc1NS(=O)(=O)c1ccccc1F [Example I-2]", 9.19],
  ["Cc1ncc(C#Cc2c(C)ncnc2N(C)CC2CCOC2)cc1NS(=O)(=O)c1ccccc1 (centres unmarked) [Example I-72]", 8.10],
  ["COc1cccc(S(=O)(=O)Nc2cc(C#Cc3c(C)ncnc3N3CCOCC3)cnc2C)c1 [Example I-4]", 9.00]
]}

I: CCc1ncnc(N2CCC(O)CC2)c1C#Cc1cnc(C)c(NS(=O)(=O)c2ccc(F)cc2)c1 [Example I-66]
II: Cc1ncc(C#Cc2c(C)ncnc2N2CCOC[C@@H]2C)cc1NS(=O)(=O)c1ccccc1 [Example I-70]
III: COCCN(C)c1ncnc(C)c1C#Cc1cnc(C)c(NS(=O)(=O)c2ccccc2)c1 [Example I-71]
Rank items: key pIC50, increasing. Please write the labels in the order that was asked for.
III, I, II

1: COc1ncc(C#Cc2c(C)ncnc2N2CCOCC2)cc1NS(=O)(=O)c1cnn(C)c1 [Example I-88]
2: CCCS(=O)(=O)Nc1cc(C#Cc2c(C)ncnc2N2CCOCC2)cnc1C [Example I-3]
For the pair 1 and 2 , which member has the lower pIC50 number? Please indicate the selected item by its label.
2

P: Cc1ncnc(N2CCOCC2)c1C#Cc1cncc(NS(=O)(=O)c2cnn(C)c2)c1 [Example I-23]
Q: CCc1ncnc(N2CCOCC2)c1C#Cc1cnc(OC)c(NS(=O)(=O)CC)c1 [Example I-76]
For the pair P and Q , which member has the lower pIC50 number? Please indicate the selected item by its label.
Q

###

Tested on: U87 cells
assay.overview: U87 cell assay (antiproliferative/cytotoxicity)
Format: cell-based
applied.conditions: U-87MG human glioblastoma cells
Excerpt: The H460, MB453, U87, MCF7 and BT474 alamarBlue cell assays provide EC50 values indicative of the antiproliferative or cytotoxic effects of the compounds to respectively the H460 (human non small cell line cancer), MB-453 (breast cancer cell line), U87 (glioblastoma cell line), MCF7 (breast cancer cell line) and BT474 (breast cancer cell line). […] 3. […] Measure fluorescence by exciting at 530-560 nm and measuring emission at 590 nm. […]
result.type: EC50 (nM)
// units = nM; emit number, no label

Known EC50 results, listed for orientation:
{"columns": ["smiles.input", "EC50 / nM"],
 "data": [
  ["COC1CCN(c2ncnc(C)c2C#Cc2cnc(C)c(NS(=O)(=O)c3ccccc3)c2)CC1", 557],
  ["Cc1ncnc(N2CCOCC2)c1C#Cc1cncc(NS(=O)(=O)c2cccnc2)c1", 10000],
  ["COc1ncc(C#Cc2c(C)ncnc2N2CCOCC2)cc1NS(=O)(=O)c1ccccc1OC(F)(F)F", 50]
]}

The value of EC50 measured for the molecule Cc1ncc(C#Cc2c(C)ncnc2N2CCOCC2)cc1NS(=O)(=O)c1ccccc1Cl turned out to be 271

The value of EC50 measured for the molecule COCCN1CCN(c2ncnc(C)c2C#Cc2cnc(C)c(NS(=O)(=O)c3ccccc3)c2)CC1 turned out to be 338

The value of EC50 measured for the molecule CCc1ncnc(N(C)C)c1C#Cc1cnc(C)c(NS(C)(=O)=O)c1 turned out to be 1290

The value of EC50 measured for the molecule CCc1ncnc(N(C)C)c1C#Cc1cnc(C)c(NS(=O)(=O)c2ccc(F)cc2)c1 turned out to be 1620

The value of EC50 measured for the molecule Cc1ncc(C#Cc2c(C)ncnc2N(C)C2CCOCC2)cc1NS(=O)(=O)c1ccc(F)cc1F turned out to be 839
